Below, each of the molecules is paired with its reported lipase activity value.
biological target: Lipolase (Thermomyces lanuginosus, UniProt O59952); construct: purchased Sigma-Aldrich; assay: storage stability of lipase (Lipolase activity, pNitrophenol-valerate substrate) in liquid formulations at 37° C.; format: biochemical, Thermomyces lanuginosa; details: base formulation I.; component (a) 2.5 wt %; Lipolase 0.4 wt %; storage at 37° C.; 30 d
Sequence (O59952 23-291): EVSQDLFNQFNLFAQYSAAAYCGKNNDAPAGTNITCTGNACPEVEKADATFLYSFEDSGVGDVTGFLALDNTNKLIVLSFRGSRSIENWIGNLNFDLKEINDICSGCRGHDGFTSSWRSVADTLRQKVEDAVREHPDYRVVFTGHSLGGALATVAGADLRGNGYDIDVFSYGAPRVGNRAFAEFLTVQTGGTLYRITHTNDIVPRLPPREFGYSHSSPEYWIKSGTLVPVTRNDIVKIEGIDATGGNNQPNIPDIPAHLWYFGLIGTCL
endpoint: lipase activity

* C[N+](C)(C)CCO.[Cl-] [C-(A.15), Choline chloride] | 20%
* C[N+](C)(C)CCO.C[N+](C)(C)CCO.O=C([O-])CC(O)(CC(=O)O)C(=O)[O-] | 29%
* C[N+](C)(C)CCO.C[N+](C)(C)CCO.C[N+](C)(C)CCO.O=C([O-])CC(O)(CC(=O)[O-])C(=O)[O-] | 29%
* C[N+](C)(C)CCO.C[N+](C)(C)CCO.O=C([O-])C(O)C(O)C(=O)[O-] (stereo not shown) | 24%
